Task for the reader: assign each of the following compounds its reported viability, T/C.
- System: 242566-281-R-J2-PDC complex spheroid viability;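 note: spheroids exposed to compound for 7 days before readout; 100% = DMSO vehicle control wells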
- assay explanation: Anticancer human tumor 242566-281-R-J2-PDC patient-derived pancreatic carcinoma cell line growth inhibition [RAS]
- experimental conditions: second compound 0.0949 µM; first compound 0.03 µM; active compounds read low
Just the number in %, nothing appended.

For CC1(C)CCC(Nc2ncc(C(F)(F)F)c(-c3c[nH]c4c(P(C)(C)=O)c(C#N)ccc34)n2)CN1 (centres undefined) + CCn1c(-c2cc(N3CCN(C)CC3)cnc2C(C)OC)c2c3cc(ccc31)-c1csc(n1)CC(NC(=O)C1CC1C)C(=O)N1CCCC(N1)C(=O)OCC(C)(C)C2 , what is its reported viability, T/C?
21.6

Next compound up: CCc1c2c(nc3ccc(O)cc13)-c1cc3c(c(=O)n1C2)COC(=O)[C@]3(O)CC + CCn1c(-c2cccnc2C(C)OC)c2c3cc(ccc31)N1CCOC(CC(NC(=O)C(C(C)C)N(C)C(=O)C3(F)CCN(C(=O)C#CC(C)(C)N(C)C)CC3)C(=O)N3CCCC(N3)C(=O)OCC(C)(C)C2)C1
38.5

Moving on to the next compound: CC1(C)CCC(Nc2ncc(C(F)(F)F)c(-c3c[nH]c4c(P(C)(C)=O)c(C#N)ccc34)n2)CN1 (centres undefined) + CCn1c(-c2cccnc2C(C)OC)c2c3cc(ccc31)N1CCOC(CC(NC(=O)C(C(C)C)N(C)C(=O)C3(F)CCN(C(=O)C#CC(C)(C)N(C)C)CC3)C(=O)N3CCCC(N3)C(=O)OCC(C)(C)C2)C1
84.8

Would you mind doing CCc1c2c(nc3ccc(O)cc13)-c1cc3c(c(=O)n1C2)COC(=O)[C@]3(O)CC + CCn1c(-c2cc(N3CCN(C)CC3)cnc2C(C)OC)c2c3cc(ccc31)-c1csc(n1)CC(NC(=O)C1CC1C)C(=O)N1CCCC(N1)C(=O)OCC(C)(C)C2 as well?
15.9
